These measurements were taken from patent US4595693A.

Target: PAF specific receptor binding site on rabbit platelet plasma membranes (Oryctolagus cuniculus, UniProt G1TEI7)
Construct: 100 μg of the platelet plasma membrane suspension; from tissue; host or cells: rabbit platelet plasma membranes
Sequence (G1TEI7 1-342): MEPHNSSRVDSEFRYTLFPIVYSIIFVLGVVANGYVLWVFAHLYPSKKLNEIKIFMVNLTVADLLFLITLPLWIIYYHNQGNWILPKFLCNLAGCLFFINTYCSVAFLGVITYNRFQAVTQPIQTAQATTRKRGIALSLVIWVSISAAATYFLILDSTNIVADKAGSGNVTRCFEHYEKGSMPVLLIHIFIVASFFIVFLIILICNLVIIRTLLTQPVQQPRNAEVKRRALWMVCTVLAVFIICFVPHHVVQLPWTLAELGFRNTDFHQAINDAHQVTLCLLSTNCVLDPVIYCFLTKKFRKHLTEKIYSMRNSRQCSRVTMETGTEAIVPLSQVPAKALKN
Assay: Inhibition of 3H-PAF binding to rabbit platelet plasma membrane
Conditions: 1 h; dose 10 (μm)
attribute measured: inhibition at 10 µM (%)
Write down the numeric answer in % and omit the unit.

1. C[C@@H]1[C@H](C)[C@H](c2ccccc2)O[C@@H]1c1ccc2c(c1)OCO2 (relative stereo) [R=CH3; R1=CH3; Ar=3,4-methylenedioxyphenyl; Ar1=phenyl; isomer (4)]; 45
2. COc1ccc([C@H]2O[C@@H](c3ccccc3)[C@@H](C)[C@H]2C)cc1OC (relative stereo) [R=CH3; R1=CH3; Ar=3,4-dimethoxyphenyl; Ar1=phenyl; isomer (4)]; 100
3. COc1cccc([C@H]2O[C@@H](c3ccccc3)[C@@H](C)[C@H]2C)c1 (relative stereo) [R=CH3; R1=CH3; Ar=3-methoxyphenyl; Ar1=phenyl; isomer (4)]; 49
4. COc1ccc([C@H]2O[C@@H](c3ccc(OC)cc3)[C@H](C)[C@H]2C)cc1 (relative stereo) [R=CH3; R1=CH3; Ar=4-methoxyphenyl; Ar1=Same as Ar; isomer (1)]; 47

Please look at the following molecule next.
Input: // query inhibition at 10 µM value for entry COc1ccc(OC)c(C2OC(c3cc(OC)ccc3OC)C(C)C2C)c1 (centres unmarked)
Output: 52

====

Target: PAF specific receptor binding site on rabbit platelet plasma membranes (Oryctolagus cuniculus, UniProt G1TEI7)
Construct: 100 μg of the platelet plasma membrane suspension; from tissue; host or cells: rabbit platelet plasma membranes
Assay: Inhibition of 3H-PAF binding to rabbit platelet plasma membrane
Conditions: 1 h; dose 1 (μm)
attribute measured: inhibition at 1 µM

Example entries begin here.
1) COc1cc([C@H]2O[C@@H](c3cc(OC)c(OC)c(OC)c3)[C@@H](C)[C@H]2C)cc(OC)c1OC [R=CH3; R1=CH3; Ar=3,4,5-trimethoxyphenyl; Ar1=Same as Ar; isomer (4)]; 12%
2) COc1cccc([C@H]2O[C@@H](c3ccccc3)[C@@H](C)[C@H]2C)c1 (relative stereo) [R=CH3; R1=CH3; Ar=3-methoxyphenyl; Ar1=phenyl; isomer (4)]; 28%

Consider the additional compound presented here.
Input: Need inhibition at 1 µM of COc1ccc([C@H]2O[C@@H](c3ccccc3)[C@@H](C)[C@H]2C)cc1OC (relative stereo) [R=CH3; R1=CH3; Ar=3,4-dimethoxyphenyl; Ar1=phenyl; isomer (4)] , thanks.
Output: 9%

====

Biological target: PAF specific receptor binding site on rabbit platelet plasma membranes (Oryctolagus cuniculus)
Construct: 100 μg of the platelet plasma membrane suspension; from tissue; host or cells: rabbit platelet plasma membranes
Assay: Inhibition of 3H-PAF binding to rabbit platelet plasma membrane
Settings: 1 h; dose 1 (μm)
# maps each entry to its inhibition at 1 µM
Record the value in %, omitting the unit from your answer.

Known inhibition at 1 µM results, listed for orientation:
1) COc1ccc([C@H]2O[C@@H](c3ccc(OC)c(OC)c3)[C@@H](C)[C@H]2C(=O)O)cc1OC (relative stereo) [R=COOH; R1=CH3; Ar=3,4-dimethoxyphenyl; Ar1=Same as Ar; isomer (4)]; 18
2) COC(=O)[C@@H]1[C@H](C)[C@H](c2ccc(OC)c(OC)c2)O[C@@H]1c1ccc(OC)c(OC)c1 (relative stereo) [R=CO2CH3; R1=CH3; Ar=3,4-dimethoxyphenyl; Ar1=Same as Ar; isomer (4)]; 33
3) COC(=O)[C@@H]1[C@@H](C(=O)OC)[C@H](c2cc(OC)c(O)cc2Cl)O[C@@H]1c1cc(OC)c(O)cc1Cl (relative stereo); 15

Input: Which inhibition at 1 µM is listed for COc1cc([C@@H]2O[C@@H](c3cc(OC)c(OC)c(OC)c3)[C@H](C)[C@H]2C)cc(OC)c1OC (relative stereo) [R=CH3; R1=CH3; Ar=3,4,5-trimethoxyphenyl; Ar1=Same as Ar; isomer (2)] ?
Output: 2

Input: Look up inhibition at 1 µM: CCOC(=O)[C@@H]1[C@@H](C(=O)OCC)[C@H](c2ccc(OC)c(OC)c2)O[C@@H]1c1ccc(OC)c(OC)c1 (relative stereo) [R=CO2Et; R1=CO2Et; Ar=3,4-dimethoxyphenyl; Ar1=Same as Ar; isomer (1)]
Output: 63

Input: May I ask what inhibition at 1 µM has been recorded for C[C@@H]1[C@H](C)[C@H](c2ccccc2)O[C@@H]1c1ccc2c(c1)OCO2 (relative stereo) [R=CH3; R1=CH3; Ar=3,4-methylenedioxyphenyl; Ar1=phenyl; isomer (4)] ?
Output: 11
